# ASSAY SYSTEM: Estrogen receptor beta (Homo sapiens)
# ASSAY PROCEDURE: OT_ER_ERbERb_1440: Odyssey Thera (OT) 24-hour HEK293T Protein-Complementation Assay for Estrogen Receptor-beta/-beta Homodimer (AID 2283380);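 also: fluorescence gain from ER beta LBD homodimer complementation read by laser scanning cytometry; scored as signal increase over DMSO baseline for both agonists and antagonists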
The source made the active and inactive calls. The calls were made as follows: active = hit-call score of the fitted dose curve at least 0.9, where 1 is the maximum; inconclusive = response in the unintended direction; inactive = score below 0.9.
Field 'call' accepts true (1) for active, false (0) for inactive

Query string: Recorded call for OCC#CCO ?
Result string: false (0)

Query string: Also CCCCOC(=O)CCCCCCCC(=O)OCCCC , if possible.
Result string: false (0)

Query string: Also COS(=O)(=O)O , if possible.
Result string: false (0)

Query string: Also Nc1ccccc1[N+](=O)[O-] , if possible.
Result string: false (0)

Query string: Also C=C(C)C(=O)OCCOC1CC2CC1C1C=CCC21 (stereo unspecified) , if possible.
Result string: false (0)

Query string: Also BrCc1cccc(Oc2ccccc2)c1 , if possible.
Result string: true (1)

Query string: Also CC(C)c1ccccc1O , if possible.
Result string: false (0)

Query string: Also CC(C)CCCCCCc1ccc(OCCOCCO)cc1 , if possible.
Result string: true (1)

Query string: Also C1=CC2C3C=CC(C3)C2C1 (stereo unspecified) , if possible.
Result string: false (0)

Query string: Also O=C1NC2NC(=O)NC2N1 (stereo unspecified) , if possible.
Result string: true (1)

Query string: Also O=[N+]([O-])c1ccc(O)cc1C(F)(F)F , if possible.
Result string: true (1)

Query string: Also CCOC(=O)c1ccc(N)cc1 , if possible.
Result string: false (0)

Query string: Also COc1ccccc1N=Nc1c(S(=O)(=O)O)cc2cc(S(=O)(=O)O)cc(NC(C)=O)c2c1O , if possible.
Result string: false (0)

Query string: Also CCCCC(CC)COC(=O)c1ccc(O)cc1 (stereo unspecified) , if possible.
Result string: true (1)

Query string: Also [O-]n1ccccc1=S.[O-]n1ccccc1=S.[Zn+2] , if possible.
Result string: false (0)

Query string: Also O=C(Nc1ccc2c(O)c(N=Nc3ccc(N=Nc4ccc(S(=O)(=O)O)cc4)cc3)c(S(=O)(=O)O)cc2c1)c1ccccc1 , if possible.
Result string: false (0)

Query string: Also Nc1ccc2cc(S(=O)(=O)O)cc(O)c2c1N=Nc1ccccc1C(F)(F)F , if possible.
Result string: false (0)

Query string: Also CCc1ccc(O)cc1 , if possible.
Result string: false (0)

Query string: Also CCCCCCC(=O)c1ccccc1 , if possible.
Result string: false (0)

Query string: Also C#CC(C)(O)CC(C)C (stereo unspecified) , if possible.
Result string: false (0)

Query string: Also CN1C(=O)c2ccccc2C1=O , if possible.
Result string: false (0)

Query string: Also CCCCCCCC(=O)OCC(O)CO (stereo unspecified) , if possible.
Result string: false (0)

Query string: Also C=Cc1ccc(C)cc1 , if possible.
Result string: false (0)

Query string: Also CCCCCC(C=O)=Cc1ccccc1 , if possible.
Result string: false (0)

Query string: Also C[C@H]1O[C@@H](O[C@H]2[C@@H](O)C[C@H](O[C@H]3[C@@H](O)C[C@H](O[C@H]4CC[C@@]5(C)[C@H](CC[C@@H]6[C@@H]5C[C@@H](O)[C@]5(C)[C@@H](C7=CC(=O)OC7)CC[C@]65O)C4)O[C@@H]3C)O[C@@H]2C)C[C@H](O)[C@@H]1O , if possible.
Result string: false (0)

Query string: Also CCOC(=O)[C@@H](C)Oc1ccc(Oc2nc3ccc(Cl)cc3o2)cc1 , if possible.
Result string: false (0)

====

# ASSAY SYSTEM: Nuclear receptor subfamily 4 group A member 2 (Homo sapiens) (UniProt P43354)
# Sequence (P43354 whole entry, looked up): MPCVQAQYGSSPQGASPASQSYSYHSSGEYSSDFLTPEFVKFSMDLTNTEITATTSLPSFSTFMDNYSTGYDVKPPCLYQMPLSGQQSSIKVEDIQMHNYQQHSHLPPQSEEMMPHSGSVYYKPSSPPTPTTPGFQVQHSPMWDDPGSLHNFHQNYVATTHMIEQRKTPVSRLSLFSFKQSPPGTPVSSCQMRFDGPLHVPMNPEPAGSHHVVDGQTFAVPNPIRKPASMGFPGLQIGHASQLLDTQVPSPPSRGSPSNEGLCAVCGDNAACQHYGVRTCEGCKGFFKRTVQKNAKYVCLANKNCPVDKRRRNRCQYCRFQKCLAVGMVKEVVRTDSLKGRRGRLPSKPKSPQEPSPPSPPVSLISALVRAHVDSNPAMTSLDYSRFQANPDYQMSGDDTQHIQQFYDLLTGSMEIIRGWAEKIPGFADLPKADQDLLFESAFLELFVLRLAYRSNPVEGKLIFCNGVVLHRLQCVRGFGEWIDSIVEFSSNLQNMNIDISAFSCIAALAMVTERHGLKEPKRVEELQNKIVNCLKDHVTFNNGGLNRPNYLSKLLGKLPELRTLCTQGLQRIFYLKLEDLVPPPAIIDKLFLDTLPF
# ASSAY PROCEDURE: ATG_NURR1_TRANS: Attagene TRANS-FACTORIAL HepG2 Assay for human Nuclear Receptor Related Protein 1 (NURR1) (AID 2282985)
# STUDY CONDITIONS: HepG2 Attagene TRANS reporter, mRNA readout
# Description: ATG_TRANS is a cell-based, multiplexed-readout assay that uses HepG2, a human liver cell line, with measurements taken at 24 hours after chemical dosing in a 24-well plate.ATG_NURR1_TRANS is one of 30 assay component(s) measured or calculated from the ATG_TRANS assay. […] This assay endpoint, ATG_NURR1_TRANS, was analyzed in the positive analysis fitting direction relative to DMSO as the negative control and baseline of activity. […]
Inconclusive results are not listed. Activity calls are given as the source filed them. How the source made its calls: active means hit-call score of the fitted dose curve at least 0.9, where 1 is the maximum; inconclusive means response in the unintended direction; inactive means score below 0.9.
READOUT LABEL: AC50

Worked examples follow.
Query string: // map CSc1c(Cl)c(Cl)c(Cl)c(Cl)c1Cl to recorded AC50 (system: Nuclear receptor subfamily 4 group A member 2 (Homo sapiens) (UniProt P43354))
Result string: 26.9 µM (active)

Query string: Also C=CCCC(=O)/C=C/C1C(C)=CCCC1(C)C (stereo unspecified) , if possible.
Result string: inactive

Query string: Also C=CC(=O)OCCC#N , if possible.
Result string: inactive

Query string: Also CCCCC(CC)C(=O)OC(C)C (stereo unspecified) , if possible.
Result string: inactive

Query string: Also C=C(C)C(=O)OCC(CC)(COC(=O)C(=C)C)COC(=O)C(=C)C , if possible.
Result string: inactive

--- query ---
Query string: // map CC1=C(Br)C(=O)C(Br)=C/C1=C(/c1ccccc1S(=O)(=O)O)c1cc(Br)c(O)c(Br)c1C to recorded AC50 (system: Nuclear receptor subfamily 4 group A member 2 (Homo sapiens) (UniProt P43354))
Result string: inactive

====

# Read-out: Macrophage colony-stimulating factor (MCSF), CSF1 (gene 1435)
# ASSAY PROCEDURE: BSK_CASM3C_MCSF: BioMAP Diversity Plus: CASM3C Assay for Macrophage colony-stimulating factor (MCSF) Biomarker Activity (AID 2283044);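 also: M-CSF protein amount quantified by ELISA after 24 h exposure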
# STUDY CONDITIONS: primary human coronary artery smooth muscle cells; actives raise or lower the signal
Active and inactive are the calls of the source. How the source made its calls: active means hit-call score of the fitted dose curve at least 0.9, where 1 is the maximum; inactive means score below 0.9.
Field 'call' accepts TRUE (active), FALSE (inactive)

Query string: Recorded call for CN(C)C(=S)SC(=S)N(C)C ?
Result string: FALSE

Query string: Also COc1ccc(OC)c(N=Nc2c(O)ccc3ccccc23)c1 , if possible.
Result string: TRUE

Query string: Also CCC(C)c1cc([N+](=O)[O-])cc([N+](=O)[O-])c1OC(=O)OC(C)C (centres undefined) , if possible.
Result string: TRUE

Query string: Also CCCCCCCCCCCCCCCC(=O)OC/C=C(C)/C=C/C=C(C)/C=C/C1=C(C)CCCC1(C)C , if possible.
Result string: FALSE

====

# ASSAY PROCEDURE: BSK_BT_Bcell_Proliferation: Viability Assessment in the BioMAP Diversity Plus: BT Assay for B cell Proliferation (AID 2284227)
# STUDY CONDITIONS: primary human B cells with PBMC
Calls of active or inactive are those of the source. The calls were made as follows: active = hit-call score of the fitted dose curve at least 0.9, where 1 is the maximum; inactive = score below 0.9.
Field 'call' accepts active, inactive

Query string: Recorded call for CN(C)C(=O)Nc1ccc(Oc2ccc(Cl)cc2)cc1 ?
Result string: inactive

Query string: Also IC(I)I , if possible.
Result string: inactive

Query string: Also CC(=O)C1(C)CC2=C(CCCC2(C)C)CC1C (stereo not drawn) , if possible.
Result string: active

Query string: Also CCCCCCCCCCCCCCCC(=O)OC/C=C(C)/C=C/C=C(C)/C=C/C1=C(C)CCCC1(C)C , if possible.
Result string: inactive

Query string: Also CCCCCC(C=O)=Cc1ccccc1 , if possible.
Result string: inactive

Query string: Also C1=CC2C3C=CC(C3)C2C1 (stereo not drawn) , if possible.
Result string: inactive

Query string: Also C=C(C)C(=O)OCCOCCOCCOCCOC(=O)C(=C)C , if possible.
Result string: inactive

Query string: Also CC=Cc1ccc(OCC)c(O)c1 , if possible.
Result string: inactive

Query string: Also Cc1cc(CCC(=O)OCCOCCOCCOC(=O)CCc2cc(C)c(O)c(C(C)(C)C)c2)cc(C(C)(C)C)c1O , if possible.
Result string: inactive

Query string: Also CC(=O)c1c(C)c([N+](=O)[O-])c(C(C)(C)C)c([N+](=O)[O-])c1C , if possible.
Result string: inactive

Query string: Also CSCCC=O , if possible.
Result string: inactive

Query string: Also CN(C)C(=S)SC(=S)N(C)C , if possible.
Result string: active

Query string: Also CC(=O)Nc1ccc(C(=O)CCl)cc1 , if possible.
Result string: active

====

# ASSAY PROCEDURE: ATG_Sox_CIS: Attagene CIS-FACTORIAL HepG2 Assay for human SRY-box transcription factor (SOX) (AID 2282960)
# STUDY CONDITIONS: HepG2 Attagene cis-factorial SOX reporter, mRNA; actives raise or lower the signal
The source made the active and inactive calls. Rule for the calls: active = hit-call score of the fitted dose curve at least 0.9, where 1 is the maximum; inactive = score below 0.9.
READOUT LABEL: AC50

Worked examples follow.
Query string: Which measured AC50 value corresponds to O=c1c(O)c(-c2ccc(O)cc2)oc2cc(O)cc(O)c12 ?
Result string: inactive

Query string: Also Cc1ccc(S(=O)(=O)Oc2ccc(N=Nc3ccc(-c4ccc(N=Nc5c(O)ccc6cc(S(=O)(=O)O)cc(S(=O)(=O)O)c56)c(C)c4)cc3C)cc2)cc1 , if possible.
Result string: inactive

Query string: Also CCCC1O[C@@H]2C[C@H]3[C@@H]4CCC5=CC(=O)C=C[C@]5(C)[C@H]4[C@@H](O)C[C@]3(C)[C@]2(C(=O)CO)O1 (some centres not stated) , if possible.
Result string: inactive

Query string: Also c1ccc2cc(Nc3ccc(Nc4ccc5ccccc5c4)cc3)ccc2c1 , if possible.
Result string: inactive

Query string: Also Cc1c(OCC(F)(F)F)ccnc1CS(=O)c1nc2ccccc2[nH]1 (configuration not stated) , if possible.
Result string: inactive

Query string: Also CC1=CC[C@@]23C[C@@H]1C(C)(C)[C@@H]2CC[C@H]3C , if possible.
Result string: inactive

---
Query string: Which measured AC50 value corresponds to CC/C=C\CC/C=C/CO ?
Result string: inactive

Query string: Also Nc1ccc2c(O)cc(S(=O)(=O)O)cc2c1 , if possible.
Result string: inactive

Query string: Also CCCCCCC(C)Nc1ccc(Nc2ccccc2)cc1 (configuration not stated) , if possible.
Result string: inactive
